biological target: T1, membrane-bound full-length human CD89 on HEK293F cells (human, UniProt P24071 22-287); assay: FACS HEK293F-huCD89, 10 ug/mL; competitor PE-MIP8a
T1 construct: 2 or transient transfectants; also called membrane human CD89; human FcaRI

BINDER	% blocking of PE-MIP8a binding
CD89/IgA blocking mouse anti-human CD89-specific antibody 20B4 (antibody, V domains shown) VH: QVQLKESGPGLVAPSQSLSITCTVSGFSLTSYGVHWVRQPPGKGLEWLGIIWAGGSTSYNSALMSRLSISKDNSKSQVFLKMNSLQTDDTAMYYCARDHYDLFAYWGQGTLVTVSA VL: DILMTQSPSSMSVSLGDTVSITCHASQDISRNIGWLQQKPGKSFKGLIYHGTNLEDGVPSRFSGSGSGADYSLTISSLESEDFADYYCVQYAQFPRTFGGGTKLEIK	< 25%
